system: IGROV1 ovarian; assay: NCI tumour cell line growth inhibition, 48 h
// values below are reported TGI

compound: CCCCOC(=O)/C=C\C(=O)NC(N)=O
system-name: IGROV1 ovarian
TGI: 54.3 µM
//
compound: CCN(CC)C(=S)/N=C(\SC(=S)N(CC)CC)c1ccccc1
system-name: IGROV1 ovarian
TGI: > 100 µM
//
compound: CC(C)(Oc1ccc(C(=O)c2ccc(Cl)cc2)cc1Cl)C(=O)N1CCN(CCO)CC1
system-name: IGROV1 ovarian
TGI: > 10 µM
//
compound: Cc1cc(I)cc(CNCCN2CCOCC2)c1O
system-name: IGROV1 ovarian
TGI: > 100 µM
//
compound: C=C1C(=O)O[C@@H]2C[C@@H]1CC[C@]1(C)O[C@H]1CC/C(C)=C/CC[C@@]2(C)O
system-name: IGROV1 ovarian
TGI: > 100 µM
//
compound: O=C1Nc2ccc(O)cc2/C1=C\c1ccncc1
system-name: IGROV1 ovarian
TGI: 41.6 µM
//
compound: O=[N+]([O-])c1ccc(NNN=Nc2ccc(-c3nc4ccccc4[nH]3)cc2)c([N+](=O)[O-])c1
system-name: IGROV1 ovarian
TGI: > 100 µM
//
compound: O=C(NCCCl)NCCN1c2nc3ccccc3cc2Sc2cc3ccccc3nc21
system-name: IGROV1 ovarian
TGI: 25.3 µM
//
compound: N#CC(C#N)=Cc1ccc(C(O)P(=O)(O)O)cc1 (stereo unspecified)
system-name: IGROV1 ovarian
TGI: > 100 µM
//
compound: COc1ccc(N2C(=O)C(=O)N(C)C2=O)c2ccccc12
system-name: IGROV1 ovarian
TGI: > 10 µM
//
compound: C=CCOC1CC(n2cnc3c(N)ncnc32)OC1CO (stereo unspecified)
system-name: IGROV1 ovarian
TGI: > 100 µM
//
compound: COC(O)C(=O)c1c2c(cc3c1CCC3)CCC2 (stereo unspecified)
system-name: IGROV1 ovarian
TGI: > 100 µM
//
compound: CC(C)C(=O)Nc1ccc(-c2nc(-c3cccc(OCCN4CCOCC4)c3)c(-c3ccnc(Br)c3)[nH]2)cc1
system-name: IGROV1 ovarian
TGI: > 100 µM
//
compound: CN(CC(=O)O)CC(=O)O
system-name: IGROV1 ovarian
TGI: > 100 µM
//
compound: CC1=NN(c2cccc(Cl)c2)C2(C1=Cc1cccs1)C(Cl)C(=O)N2c1nc2ccccc2s1 (stereo unspecified)
system-name: IGROV1 ovarian
TGI: > 100 µM
//
compound: O=S1(=O)OCCOS(=O)(=O)C1(Cl)Cl
system-name: IGROV1 ovarian
TGI: > 100 µM
//
compound: O=C(NNC(=S)Nc1ccc(Cl)cc1)C12CC3CC(CC(C3)C1)C2
system-name: IGROV1 ovarian
TGI: 33.1 µM
//
compound: O=C(/C=C/c1ccco1)Nc1ncc(Cc2cccc(C(F)(F)F)c2)s1
system-name: IGROV1 ovarian
TGI: > 32.2 µM
//
compound: CCOC(=O)c1cc(C2=CCNC2=O)c(-c2cc(C)no2)[nH]1
system-name: IGROV1 ovarian
TGI: > 100 µM
//
compound: CCOC(=O)C1=C(C)NC(C)=C(C(=O)OCCNC(=O)c2ccc(N=[N+]=[N-])cc2)C1c1ccccc1C(F)(F)F (stereo unspecified)
system-name: IGROV1 ovarian
TGI: 21.5 µM
//
compound: O=C(CN(Cc1ccccc1)Cc1ccccc1)N1CCc2c([nH]c3ccccc23)C1c1cccnc1 (stereo unspecified)
system-name: IGROV1 ovarian
TGI: > 100 µM
//
compound: O=C1C[C@@H]2[C@@H](CCC23CCCC3)N1
system-name: IGROV1 ovarian
TGI: > 100 µM
//
compound: N#CC(C(=O)CCC(=O)Nc1ccc(Cl)cc1)c1ccc(Cl)cc1 (stereo unspecified)
system-name: IGROV1 ovarian
TGI: > 100 µM
//
compound: COc1cc(/C=N/N=C(\N)NO)ccc1O
system-name: IGROV1 ovarian
TGI: > 100 µM
//
compound: O=C(CN1CCN(CCN2C(=O)c3cccc4cccc(c34)C2=O)CC1)Nc1ccc2ncsc2c1
system-name: IGROV1 ovarian
TGI: > 100 µM
//
compound: O=C1C(Cl)=C(Cl)C(=O)N1c1ccccc1Cl
system-name: IGROV1 ovarian
TGI: > 100 µM
//
compound: Cc1ccc(NC(=O)CCc2nnc3s/c(=C\c4cccc([N+](=O)[O-])c4)c(=O)n23)cc1
system-name: IGROV1 ovarian
TGI: > 100 µM
//
compound: CCC[CH2][Sn]1([CH2]CCC)[O]C(=O)CN=C(C)c2ccccc2[O]1
system-name: IGROV1 ovarian
TGI: > 100 µM
//
compound: COC(C)(C)[C@@H]1CCCN1C1=C(C)C(=O)OC1
system-name: IGROV1 ovarian
TGI: > 100 µM
//
compound: CN1CCN(Cc2ccc(NC(=O)c3cncc(C#Cc4c(N)ncc5c(F)cccc45)c3)cc2C(F)(F)F)CC1
system-name: IGROV1 ovarian
TGI: 1.61 µM
//
compound: COC(=O)CC1C2(C)C3=C(C)C(c4ccoc4)CC3OC2C2OC(=O)C3(C)C=CC(=O)C1(C)C23 (stereo unspecified)
system-name: IGROV1 ovarian
TGI: 3.29 µM
//
compound: Clc1cc2nc(C3CCCCO3)[nH]c2cc1Cl (stereo unspecified)
system-name: IGROV1 ovarian
TGI: > 100 µM
//
compound: CC[O-].CC[O-].COc1ccc(C(=O)[CH-]C(C)=O)cc1OC.COc1ccc(C(=O)[CH-]C(C)=O)cc1OC.[Ti+4]
system-name: IGROV1 ovarian
TGI: > 100 µM
//
compound: COc1ccc(C(=O)N2CCN(c3ccc4c(c3)OCC(=O)N4)CC2)cc1OC
system-name: IGROV1 ovarian
TGI: > 100 µM
//
compound: Cc1ccc(C(=O)C(c2nc3n(c2O)C(=N)N=N3)c2nc3n(c2O)C(=N)N=N3)cc1 (stereo unspecified)
system-name: IGROV1 ovarian
TGI: > 100 µM
//
compound: CC(C)COC(=O)c1ccc(N=Cc2ccc(C=Nc3ccc(C(=O)OCC(C)C)cc3)cc2)cc1
system-name: IGROV1 ovarian
TGI: > 100 µM
//
compound: CCCCCCCCCCCCNC(=O)N[C@H](C(=O)N[C@H]1/C=C/CCNC(=O)/C=C/[C@H](C)NC1=O)C(C)C
system-name: IGROV1 ovarian
TGI: 2.24 µM
//
compound: Cc1c2oc3c(C)cnc(C(=O)NC4C(=O)NC(C(C)C)C(=O)N5CCCC5C(=O)N(C)CC(=O)N(C)C(C(C)C)C(=O)OC4C)c3nc-2c(C(=O)NC2C(=O)NC(C(C)C)C(=O)N3CCCC3C(=O)N(C)CC(=O)N(C)C(C(C)C)C(=O)OC2C)c(N)c1=O (stereo unspecified)
system-name: IGROV1 ovarian
TGI: > 75 µM
//
compound: c1ccc(COCC[P+](c2ccccc2)(c2ccccc2)c2ccccc2)cc1
system-name: IGROV1 ovarian
TGI: 11.9 µM
//
compound: OCC1C2CCC3(OCCO3)C12 (stereo unspecified)
system-name: IGROV1 ovarian
TGI: > 100 µM
//
compound: O=C1CNc2cc(N3CCOCC3)ccc2N1
system-name: IGROV1 ovarian
TGI: > 100 µM

----------
system: KM12 colon; assay: NCI tumour cell line growth inhibition, 48 h

compound: O=C(NCCCl)NCCN1c2nc3ccccc3cc2Sc2cc3ccccc3nc21
system-name: KM12 colon
TGI: 16.1 µM
//
compound: CC(C)C(=O)Nc1ccc(-c2nc(-c3cccc(OCCN4CCOCC4)c3)c(-c3ccnc(Br)c3)[nH]2)cc1
system-name: KM12 colon
TGI: > 100 µM
//
compound: COc1ccc(N2C(=O)C(=O)N(C)C2=O)c2ccccc12
system-name: KM12 colon
TGI: > 10 µM
//
compound: O=C(Nc1ccc(Oc2ccc(NC(=O)Nc3ccccc3Cl)cc2)cc1)Nc1ccccc1Cl
system-name: KM12 colon
TGI: > 100 µM
//
compound: COc1cccc(CCNC(=O)CC(c2ccccc2)(c2ccccc2)c2ccccc2)c1
system-name: KM12 colon
TGI: > 100 µM
//
compound: O=S1(=O)OCCOS(=O)(=O)C1(Cl)Cl
system-name: KM12 colon
TGI: > 100 µM
//
compound: Fc1ccc(Nc2ncc(-c3cc(F)c(Cl)cc3Cl)s2)cc1Cl
system-name: KM12 colon
TGI: 13.3 µM
//
compound: Brc1c2c(c(Br)c3nsnc13)N=S=N2
system-name: KM12 colon
TGI: > 100 µM
//
compound: O=C(/C=C/c1ccco1)Nc1ncc(Cc2cccc(C(F)(F)F)c2)s1
system-name: KM12 colon
TGI: > 31.8 µM
//
compound: CCOC(=O)Nc1ccc2nc(N3CCCCCC3)sc2c1
system-name: KM12 colon
TGI: > 57.5 µM
//
compound: COc1cc(-c2cc(-c3cccs3)c(C#N)c(N3CCOCC3)n2)cc(OC)c1OC
system-name: KM12 colon
TGI: > 100 µM
//
compound: O=C(O)C1CC(C2CCCCN2)CN2CCCCC12 (stereo not given)
system-name: KM12 colon
TGI: > 100 µM
//
compound: CC12CCCC(C#N)(C1)OC2=O (stereo not given)
system-name: KM12 colon
TGI: > 100 µM
//
compound: Cc1ccc(S(=O)(=O)NN=C2C(C)(C)CC2(C)C)cc1
system-name: KM12 colon
TGI: > 100 µM
//
compound: N#CC(c1ccccc1)N(CCc1ccccc1)C(=O)c1ccc(C(=O)N(CCc2ccccc2)C(C#N)c2ccccc2)cc1 (stereo not given)
system-name: KM12 colon
TGI: > 100 µM
//
compound: CCOC(=O)c1cc(-c2ccc([N+](=O)[O-])cc2)c([N+](=O)[O-])[nH]1
system-name: KM12 colon
TGI: > 10 µM
//
compound: Cc1cncc(-c2nc(NCCc3c[nH]c4ccccc34)c3ncn(C(C)C)c3n2)c1
system-name: KM12 colon
TGI: 12.8 µM
//
compound: COc1ccc(/C(=C/c2ccc3ccccc3c2)c2nn[nH]n2)cc1OC
system-name: KM12 colon
TGI: > 100 µM
//
compound: O=C1N=CN=C2C=CC(Cl)=C(I)C12 (stereo not given)
system-name: KM12 colon
TGI: > 100 µM
//
compound: Cc1cccc2c(N)c3cccc(C(=O)NCC[N+](C)(C)Cc4ccc(S(C)(=O)=O)cc4)c3nc12
system-name: KM12 colon
TGI: > 100 µM
